The values you see were collected from PubChem BioAssay AID1851.

# TGT: Cytochrome P450 2C9 (Homo sapiens)
# TEST_DESCRIPTION: Cytochrome panel assay with activity outcomes; note: % is set by controls: 0 for no effect and ±100 for the full control effect
# MEASUREMENT_CONTEXT: recombinant CYP, pro-luciferin dealkylation, luminescence, p450-cyp2c9; series mostly up to 57.1 µM
Hit rate of the full screen: of about 16,000 compounds, about 4,000 (25%) were called active. About 26% were inconclusive and are not listed. Only a sample is shown.
REPORTED_METRIC: activity, negative = inhibition

See these solved cases before continuing.
COMPOUND	activity, negative = inhibition
N[C@H](Cn1ccc(=O)[nH]c1=O)C(=O)O	inactive
C[C@@H]1CC[C@@H]2N(C1)C[C@H]1[C@@](O)([C@H](O)C[C@]3(O)[C@H]4CC[C@H]5[C@]6(O)O[C@]4(C[C@]13O)[C@@]5(C)CC[C@@H]6O)[C@@]2(C)O	-2.76% [at 11.4 µM] (inactive)
O=C1C[C@@H](c2ccc(O)cc2)Oc2cc(O)cc(O)c21	inactive
O=C(O)[C@H]1C[C@@H]1[C@H](NP(=O)(c1ccccc1)c1ccccc1)c1ccccc1	inactive

Now turn to the next compound.
Lookup: activity, negative = inhibition / Cytochrome P450 2C9 (Homo sapiens) / O=P(O)(O)c1ccccc1 (tested in a mixture with another compound)
0.15% [at 11.4 µM] (inactive)
